Assay: Displacement of metals from EDTA complexes by physiological saline
Assay type: physicochemical
Protocol: Adding saline to the suspension of Ag4(EDTA), the suspension quickly precipitated a solid (AgCl). The precipitate was filtered off, washed with deionized water 4 times; and then dried in a vacuum oven at 50° C. in a dark flask to avoid exposure to direct light. The displacement experiment described above was repeated for compounds 1-4 to provide the percent of the displacement of silver, copper, zinc from the EDTA complexes by physiological saline.
quantity: Displacement (%) Silver

molecule	value-measured
O=C([O-])CN(CCN(CC(=O)[O-])CC(=O)[O-])CC(=O)[O-].[Ag+].[Cu+2].[Na+] [Compound 1, AgCuNaEDTA]	81.37
O=C([O-])CN(CCN(CC(=O)[O-])CC(=O)[O-])CC(=O)[O-].[Ag+].[Ag+].[Cu+2] [Compound 2, Ag2CuEDTA]	77.99
O=C([O-])CN(CCN(CC(=O)[O-])CC(=O)[O-])CC(=O)[O-].[Ag+].[Ag+].[Zn+2] [Compound 4, Ag2ZnEDTA]	80.77
O=C([O-])CN(CCN(CC(=O)[O-])CC(=O)[O-])CC(=O)[O-].[Ag+].[Na+].[Zn+2] [Compound 3, AgZnNaEDTA]	82.32
